Measured bioavailability by item
Experiment: Oral bioavailability in Balb nu/nu mouse at 10 mg/kg
Type: ADME, organism-based
Conditions: in vivo
ATTRIBUTE_MEASURED: bioavailability (%)

>>> meas_value("CCc1ccc(Cl)cc1-c1[nH]c(-c2ccnc(N)n2)cc1C(N)=O")
17
>>> meas_value("CCc1ccc(C(F)(F)F)cc1-c1[nH]c(-c2ccnc(N)n2)cc1C(N)=O")
24
>>> meas_value("NC(=O)c1cc(-c2ccnc(N)n2)[nH]c1-c1cc(C(F)(F)F)ccc1Cl")
31

* * *

Assay: AUC(infinity) in Balb nu/nu mouse at 10 mg/kg, iv
Type: ADME, organism-based, Plasma
Set-up: dose 10 mg/kg, route intravenous, time infinity
Conditions: Balb nu/nu, plasma
ATTRIBUTE_MEASURED: AUC(0-inf)

>>> meas_value("NC(=O)c1cc(-c2ccnc(N)n2)[nH]c1-c1cc(C(F)(F)F)ccc1Cl")
"26.4 µM·h"
>>> meas_value("CCc1ccc(C(F)(F)F)cc1-c1[nH]c(-c2ccnc(N)n2)cc1C(N)=O")
"20.7 µM·h"
